TARGET_DESC: Carbonic anhydrase 9 (Homo sapiens, UniProt Q16790)
MEASURED_QUANTITY: Ki (nM)
The reply should contain only the number, in nM.

Completed entries (count: 2):
# GIVEN_SMILES, TARGET_DESC, MEASURED_QUANTITY, MEASURED_VALUE
records = [
    ("Cc1nn(C)c2nnc(Nc3ccc(S(=O)(=O)NCCO)cc3)nc12", "Carbonic anhydrase 9 (Homo sapiens, UniProt Q16790)", "Ki", 26.5),
    ("Cc1nn(C)c2nnc(Nc3ccc(S(N)(=O)=O)cc3)nc12", "Carbonic anhydrase 9 (Homo sapiens, UniProt Q16790)", "Ki", 43.8),
]

Ask: Request body: readout Ki, system Carbonic anhydrase 9 (Homo sapiens, UniProt Q16790), query `Cc1nn(C)c2nnc(S(C)(=O)=O)nc12` . Return the value.
Reply: 89

Ask: Request body: readout Ki, system Carbonic anhydrase 9 (Homo sapiens, UniProt Q16790), query `Cc1nn(C)c2nnc(Nc3ccccc3)nc12` . Return the value.
Reply: 82
